The reported measurements were obtained from patent US5250541A.

target: glycine recognition site of the NMDA receptor-ion channel complex (cortical membranes); assay: displacement of labelled glycine from cortical membranes; conditions: cortical membranes; read-out: concentration displacing 50% of labelled glycine from its binding sites
pIC50: −log10 of the molar value.
ENDPOINT NAME: pIC50

O=C(O)c1cc(S)c2ccc(Cl)cc2n1 ... 6.00
